Origin of measurements: the supplement of paper PMC10567573

B1: KLHL13 (parent)
chain: TGEFLKLPFERLAFVLSSNSLKHC

Variants of: B1
ASSAY: protein stability index of a GFP-peptide fusion (GPS, HEK-293T) (PSI 1-6); higher = more stable;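 note: lentivirally expressed fusions sorted by FACS into six bins by GFP to DsRed ratio, PSI derived from sequencing read proportions per bin multiplied by bin number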
CONDITIONS USED: c terminus: a fixed tail appended
Note to self: values exactly at 2 are condition met. So protein stability index at or above 2 is condition met, below is condition not met.

* L7I | condition met
* L12H | condition met
* L12N | condition met

Inquiry: Dear colleague, could you confirm whether L12D has protein stability index at or above 2?
Reply text: condition met

Inquiry: Follow-up entry: V15A
Reply text: condition not met

Inquiry: And for L21E ?
Reply text: condition met

Inquiry: Same again, this time with V15T
Reply text: condition not met

Inquiry: Could you do the same for L12C , please?
Reply text: condition met

Inquiry: Another variant to check: A13E
Reply text: condition not met
